So I've got a bunch of binders here, and I need their Fold IC50 (pH 6.0 v pH 7.4) values.
- measurement target: T1, recombinant biotinylated human PAR2 extracellular domain (residues 1-75), N-terminal AviTag, C-terminal Flag … (human, UniProt P55085 26-75, biotin on the AviTag (enzymatic biotinylation))
- T1 construct: also called Bio-human-PAR2 ECD; human PAR2 ECD; not shown: N-terminal AviTag (Avidity LLC); C-terminal Flag and poly Histidine tags
- T1 sequence (P55085 26-75): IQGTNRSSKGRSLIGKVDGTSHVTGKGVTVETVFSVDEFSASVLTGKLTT
- assay remarks: HTRF competition with Par0067 IgG, scFv
Give bare numbers, in fold.

Lab note: each binder below needs its Fold IC50 (pH 6.0 v pH 7.4) filled in.
1. PaB670067 scFv (scFv, V domains shown, purified scFv; also called ZZ1KXE-A05) VH: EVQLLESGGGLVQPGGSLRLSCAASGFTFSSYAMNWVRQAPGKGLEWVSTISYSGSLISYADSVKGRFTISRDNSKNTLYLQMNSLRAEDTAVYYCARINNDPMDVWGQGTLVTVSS VL: SIELTQPPSVSVSPGQTASITCSGDNLGKKYVQWYQQKPGQSPVLVIYDDSNRPSGIPERFSGSNSGNTATLTISGTQAMDEADYYCHTWHHHPTHGEHNVFGGGTKLTVL
2. PaB670010 scFv (scFv, V domains shown, purified scFv; also called ZZ1DRB-B08) VH: EVQLLESGGGLVQPGGSLRLSCAASGFTFSSYAMNWVRQAPGKGLEWVSTISYSGSLIHYADSVKGRFTISRDNSKNTLYLQMNSLRAEDTAVYYCARINNDPMDVWGQGTLVTVSS VL: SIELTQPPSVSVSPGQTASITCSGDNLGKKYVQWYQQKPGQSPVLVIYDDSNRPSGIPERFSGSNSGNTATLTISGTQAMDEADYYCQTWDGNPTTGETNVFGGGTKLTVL
3. PaB670102 scFv (scFv, V domains shown, purified scFv; also called ZZ1PXS-F08) VH: EVQLLESGGGLVQPGGSLRLSCAASGFTFSSYAMNWVRQAPGKGLEWVSTISYSGSLISYADSVKGRFTISRDNSKNTLYLQMNSLRAEDTAVYYCARINHDPMDHWGQGTLVTVSS VL: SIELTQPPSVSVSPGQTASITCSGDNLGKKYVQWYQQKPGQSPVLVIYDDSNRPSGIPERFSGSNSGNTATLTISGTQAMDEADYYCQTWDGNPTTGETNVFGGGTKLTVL
4. PaB670099 scFv (scFv, V domains shown, purified scFv) VH: EVQLLESGGGLVQPGGSLRLSCAASGFTFSSYAMNWVRQAPGKGLEWVSTISYHGSHISYHDSVHHRFTISRDNSKNTLYLQMNSLRAEDTAVYYCARINNDPMDVWGQGTLVTVSS VL: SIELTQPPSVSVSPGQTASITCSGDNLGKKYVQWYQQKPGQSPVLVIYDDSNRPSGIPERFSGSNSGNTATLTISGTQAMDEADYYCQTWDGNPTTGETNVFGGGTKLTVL

Result:
7.9
2.7
2.6
4.8

Request: Requested read-out: Fold IC50 (pH 6.0 v pH 7.4). Entry: Par0067 scFv (scFv, V domains shown, purified scFv, parent clone; also called ZZ15D2-D02) VH: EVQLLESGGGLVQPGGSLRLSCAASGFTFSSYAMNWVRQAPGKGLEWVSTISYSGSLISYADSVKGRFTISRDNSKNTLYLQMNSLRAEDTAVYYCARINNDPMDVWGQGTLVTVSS VL: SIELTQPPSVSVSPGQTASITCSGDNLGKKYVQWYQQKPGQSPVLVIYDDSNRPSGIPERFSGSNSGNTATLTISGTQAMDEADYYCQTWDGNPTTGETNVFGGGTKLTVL
Result: 1.1
